Target: hPAD4 enzyme (Homo sapiens (Human))
Sequence (Q9UM07 whole entry): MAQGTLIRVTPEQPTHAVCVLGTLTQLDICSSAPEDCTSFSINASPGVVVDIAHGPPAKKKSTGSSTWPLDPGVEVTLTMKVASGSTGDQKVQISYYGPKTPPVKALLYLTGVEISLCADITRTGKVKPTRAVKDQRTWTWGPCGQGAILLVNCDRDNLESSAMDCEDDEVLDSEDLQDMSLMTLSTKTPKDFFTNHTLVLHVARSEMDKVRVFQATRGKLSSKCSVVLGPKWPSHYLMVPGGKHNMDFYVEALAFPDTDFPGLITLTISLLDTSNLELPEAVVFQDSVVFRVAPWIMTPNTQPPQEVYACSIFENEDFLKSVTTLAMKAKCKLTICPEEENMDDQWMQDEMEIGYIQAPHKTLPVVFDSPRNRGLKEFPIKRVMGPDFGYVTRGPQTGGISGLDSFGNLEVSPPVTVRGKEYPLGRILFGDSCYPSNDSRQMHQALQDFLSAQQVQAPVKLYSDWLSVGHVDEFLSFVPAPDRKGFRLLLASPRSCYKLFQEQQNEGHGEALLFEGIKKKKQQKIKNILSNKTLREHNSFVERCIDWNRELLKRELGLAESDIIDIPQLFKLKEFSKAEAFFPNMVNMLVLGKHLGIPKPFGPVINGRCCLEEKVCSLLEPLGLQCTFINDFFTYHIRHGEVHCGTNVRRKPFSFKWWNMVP
Assay: RFMS2 assay (RapidFire mass spectrometry, TSTGGRQGSHH peptide substrate)
Format: biochemical
Details: 35 nM recombinant human PAD4, 500 μM TSTGGRQGSHH peptide, 30 minutes at room temperature; read-out: RFMS 2 IC50
pIC50: −log10 of the molar value.
Below, each of the compounds is paired with its reported pIC50 value.

compound | pIC50
Cn1c(-c2cc3cccc(OCc4cn[nH]c4)c3n2CC2CC2)nc2cc3c(cc21)CCN(C[C@H](N)CF)C3=O [Example 193] | 7.00 to 7.96
COc1cccc2cc(-c3nc4cc5c(cc4n3C)CCN(C[C@H](N)CF)C5=O)n(Cc3ccnnc3)c12 [Example 144] | 6.30 to 7.00
CN[C@H](C)CN1CCc2cc3c(cc2C1=O)nc(-c1cc2cccc(OCC4CNC(=O)C4)c2n1CC1CC1)n3C (some centres unmarked) [Example 229] | 6.30 to 7.00
C[C@@H](Cn1ccnc1)Oc1cccc2cc(-c3nc4cc5c(cc4n3C)CCN(C[C@H](N)CF)C5=O)n(CC3CC3)c12 [Example 222] | 6.30 to 7.00
Cn1c(-c2cc3cccc(OCCc4cnco4)c3n2CC2CC2)nc2cc3c(cc21)CCN(C[C@H](N)CF)C3=O [Example 194] | 7.00 to 7.96
COc1cccc2cc(-c3nc4cc5c(cc4n3C)CCN(C[C@H](N)C(C)F)C5=O)n(CC3CC3)c12 (some centres unmarked) [Example 15b] | 6.00 to 6.30
Cn1c(-c2cc3cccc(OCc4nnco4)c3n2CC2CC2)nc2cc3c(cc21)CCN(C[C@H](N)CF)C3=O [Example 176] | 6.30 to 7.00
COC(=O)NCCOc1cccc2cc(-c3nc4cc5c(cc4n3C)CCN(C[C@H](N)CF)C5=O)n(CC3CC3)c12 [Example 207] | 6.30 to 7.00
Cc1cc(Cn2c(-c3nc4cc5c(cc4n3C)CCN(C[C@H](N)CF)C5=O)cc3ccccc32)no1 [Example 100] | < 6.00
COc1cccc2cc(-c3nc4cc5c(cc4n3C)CCN(C[C@H](N)CF)C5=O)n(Cc3coc(C)n3)c12 [Example 145] | 6.30 to 7.00
CCn1c(-c2nc3cc4c(cc3n2C)CCN(C[C@H](N)CF)C4=O)cc2ccc(OC)nc21 [Example 108] | 6.00 to 6.30
Cn1c(-c2cc3cccc(OC[C@@H]4CNC(=O)C4)c3n2CC2CC2)nc2cc3c(cc21)CCN(C[C@H](N)CF)C3=O [Example 190] | 7.00 to 7.96
Cn1c(-c2cc3cccc(OCc4ccnnc4)c3n2CC2CC2)nc2cc3c(cc21)CCN(C[C@H](N)CF)C3=O [Example 171] | 6.30 to 7.00
COC1CC(Cn2c(-c3nc4cc5c(cc4n3C)CCN(C[C@@H](C)N)C5=O)cc3ccccc32)C1 (some centres unmarked) [Example 75] | 6.00 to 6.30
Cn1c(-c2cc3cccc(OCCN4CCOCC4)c3n2CC2CC2)nc2cc3c(cc21)CCN(C[C@H](N)CF)C3=O [Example 158] | 6.00 to 6.30
C[C@@H](N)CN1CCc2cc3c(cc2C1=O)nc(-c1cc2cccc(C(F)(F)F)c2n1CC1CC1)n3C [Example 36] | 6.00 to 6.30
COc1cccc2cc(-c3nc4cc5c(cc4n3C)CCN(C[C@H](N)CF)C5=O)n(Cc3ncc(C)o3)c12 [Example 125] | 6.30 to 7.00
